Kindly supply the reported DC50 values for the records listed here.
experimental-target: Cbl-B (Homo sapiens, UniProt Q13191)
Construct: MSD-Based Assay for Degradation of Cbl-B in THP-1 Cells; endogenous in cells; host or cells: THP-1 (title) / Jurkat (protocol text)
Sequence (Q13191 whole entry): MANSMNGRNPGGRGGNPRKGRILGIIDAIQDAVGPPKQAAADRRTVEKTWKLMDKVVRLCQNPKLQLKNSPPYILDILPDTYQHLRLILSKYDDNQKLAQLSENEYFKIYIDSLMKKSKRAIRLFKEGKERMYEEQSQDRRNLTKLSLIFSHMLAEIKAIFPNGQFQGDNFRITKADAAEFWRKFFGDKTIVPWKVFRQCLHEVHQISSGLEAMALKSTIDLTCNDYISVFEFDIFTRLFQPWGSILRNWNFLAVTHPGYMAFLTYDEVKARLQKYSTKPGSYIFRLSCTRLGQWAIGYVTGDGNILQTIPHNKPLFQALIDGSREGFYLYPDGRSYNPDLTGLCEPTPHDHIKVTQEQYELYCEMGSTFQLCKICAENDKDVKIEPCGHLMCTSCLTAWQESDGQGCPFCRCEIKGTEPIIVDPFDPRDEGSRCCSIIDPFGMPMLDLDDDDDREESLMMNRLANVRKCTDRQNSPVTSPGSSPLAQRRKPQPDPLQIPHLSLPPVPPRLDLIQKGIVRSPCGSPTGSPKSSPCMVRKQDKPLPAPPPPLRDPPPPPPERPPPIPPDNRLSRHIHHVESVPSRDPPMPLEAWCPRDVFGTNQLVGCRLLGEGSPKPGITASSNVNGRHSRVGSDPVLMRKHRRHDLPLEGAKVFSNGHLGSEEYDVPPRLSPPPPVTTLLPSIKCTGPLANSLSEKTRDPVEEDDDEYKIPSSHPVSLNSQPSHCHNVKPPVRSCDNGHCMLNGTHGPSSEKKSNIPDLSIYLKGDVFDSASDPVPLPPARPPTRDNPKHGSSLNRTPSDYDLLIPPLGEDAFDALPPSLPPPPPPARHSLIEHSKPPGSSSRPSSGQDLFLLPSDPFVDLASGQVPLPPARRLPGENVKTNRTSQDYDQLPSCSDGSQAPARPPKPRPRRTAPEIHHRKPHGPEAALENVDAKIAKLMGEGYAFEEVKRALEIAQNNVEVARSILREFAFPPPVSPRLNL
measurement-protocol: MSD-based assay for degradation of Cbl-B in THP-1 cells
Assay type: cell-based
test-settings: Cbl-B degradation, Jurkat cells seeded (heading: THP-1 cells), 24 hours incubation, MSD readout

Data request: Return reported DC50; argument: Cn1cnnc1CC1(c2cccc(-n3cc4c(C(F)(F)F)cc(CN5CCC(CC(=O)N6CCC(CC7CCN(c8ccc9c(c8)CN([C@@H]8CCC(=O)NC8=O)C9=O)CC7)CC6)CC5)cn4c3=O)c2)COC1 (single isomer, unassigned) [Compound 257]
Data returned: 30 to 300 nM

Data request: Entry Cn1cnnc1[C@@H](c1cccc(-n2cc3c(C(F)(F)F)cc(CN4CCC(OCCc5ccc(CN6CCN(c7ccc8c(c7)CN([C@@H]7CCC(=O)NC7=O)C8=O)CC6)cc5)CC4)cn3c2=O)c1)C1CCC1 (single isomer, unassigned) [Compound 115] : reported DC50 = ?
Data returned: > 10000 nM

Data request: # input molecule: Cn1cnnc1CC1(c2cccc(-n3cc4c(C(F)(F)F)cc(CN5CCC(OCCN6CCN(CC7CCN(c8ccc9c(c8)CN([C@H]8CCC(=O)NC8=O)C9=O)CC7)CC6)CC5)cn4c3=O)c2)COC1 (single isomer, unassigned) [Compound 78] ; wanted: its DC50
Data returned: < 30 nM

Data request: // returns reported DC50 for input Cn1cnnc1[C@@H](c1cccc(-n2cc3c(C(F)(F)F)cc(CN4CCC(OCc5ccc(N6CCN(c7ccc8c(c7)CN([C@H]7CCC(=O)NC7=O)C8=O)CC6)cc5)CC4)cn3c2=O)c1)C1CCC1 (single isomer, unassigned) [Compound 156]
Data returned: < 30 nM

Data request: Given the entry CN(CCOC1CCN(Cc2cc(C(F)(F)F)c3cn(-c4cccc([C@H](c5nncn5C)C5CCC5)c4)c(=O)n3c2)CC1)C(=O)c1ccc(N2CC3CC(C2)N3c2ccc3c(c2)CN([C@@H]2CCC(=O)NC2=O)C3=O)cc1 (single isomer, unassigned) [Compound 89] , report its measured DC50.
Data returned: 1000 to 10000 nM

Data request: Fill in the blank: the reported DC50 of Cn1cnnc1[C@@H](c1cccc(-n2cc3c(C(F)(F)F)cc(CN4CCC[C@@H](OC5CCN(C(=O)c6ccc(N7CCN(c8ccc9c(c8)CN([C@@H]8CCC(=O)NC8=O)C9=O)CC7)cc6)CC5)C4)cn3c2=O)c1)C1CCC1 (single isomer, unassigned) [Compound 171] is ____.
Data returned: < 30 nM

Data request: I'd like to know its DC50. The molecule in question is CN(C(=O)c1ccc(CN2CCN(c3ccc4c(c3)CN([C@@H]3CCC(=O)NC3=O)C4=O)CC2)cc1)C1CCN(Cc2cc(C(F)(F)F)c3cn(-c4cccc([C@H](c5nncn5C)C5CCC5)c4)c(=O)n3c2)CC1 [Compound 159]
Data returned: > 10000 nM

Data request: Find the recorded DC50 belonging to Cn1cnnc1CC1(c2cccc(-n3cc4c(C(F)(F)F)cc(CN5CCN(CC(=O)N6CCC(CN7CCN(c8ccc9c(c8)CN([C@@H]8CCC(=O)NC8=O)C9=O)CC7)CC6)CC5)cn4c3=O)c2)COC1 (single isomer, unassigned) [Compound 133] and report it.
Data returned: 30 to 300 nM
